Here the recorded binding signal is given for each entry.
Tgt: GST-Aq-NF-kB (Amphimedon queenslandica, UniProt A9Y5G7 2-389)
Sequence: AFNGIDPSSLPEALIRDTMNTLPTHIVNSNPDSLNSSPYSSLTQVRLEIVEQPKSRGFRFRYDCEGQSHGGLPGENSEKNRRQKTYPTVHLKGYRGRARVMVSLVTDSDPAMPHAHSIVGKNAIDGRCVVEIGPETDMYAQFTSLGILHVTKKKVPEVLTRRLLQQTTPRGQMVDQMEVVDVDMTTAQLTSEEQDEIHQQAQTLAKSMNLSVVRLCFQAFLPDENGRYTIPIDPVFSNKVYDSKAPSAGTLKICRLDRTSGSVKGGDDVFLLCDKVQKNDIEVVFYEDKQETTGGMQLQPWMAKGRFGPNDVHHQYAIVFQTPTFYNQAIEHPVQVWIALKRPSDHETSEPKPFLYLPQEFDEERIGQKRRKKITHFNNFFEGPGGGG
Assay overview: protein-binding microarray (PBM); PBM: ~300 nM protein, 6 mM HEPES pH 7.8, 80 mM KCl, 0.5 mM EDTA, 0.5 mM EGTA, 6% glycerol, 35 ng/ul poly-dIdC, 1% milk, 1 h, room temperature; Ap Aiptasia and Nv Nematostella (sea anemones) / Co Capsaspora / Aq Amphimedon (sponge) / Dm Drosophila / Hu human; RHD is the Rel homology domain; high values mean tight binding
Stated conditions: dsDNA, one strand shown

{"columns": ["Sequence code", "binding signal, z-score"],
 "data": [
  ["CCGATTAACATCACAATATCCCCTGATGTTAATCGGGTCTTGATTCGCTTGACGCTGCTG", 4.96],
  ["CCGATTAACATCAGGGCAAGTACTGATGTTAATCGGGTCTTGATTCGCTTGACGCTGCTG", 2.28],
  ["CCGATTAACATCAAAATCCCAGGTGATGTTAATCGGGTCTTGATTCGCTTGACGCTGCTG", 2.06],
  ["CCGATTAACATCAGGAGTTTACCTGATGTTAATCGGGTCTTGATTCGCTTGACGCTGCTG", 2.87],
  ["CCGATTAACATCAGGGGAAACCATGATGTTAATCGGGTCTTGATTCGCTTGACGCTGCTG", 5.84],
  ["CCGATTAACATCAGGGTATACCCTGATGTTAATCGGGTCTTGATTCGCTTGACGCTGCTG", 6.04],
  ["CCGATTAACATCACACCCCCCCGTGATGTTAATCGGGTCTTGATTCGCTTGACGCTGCTG", 3.38],
  ["CCGATTAACATCAAGGAATGTCCTGATGTTAATCGGGTCTTGATTCGCTTGACGCTGCTG", 1.74],
  ["CCGATTAACATCAGAAAATCCCATGATGTTAATCGGGTCTTGATTCGCTTGACGCTGCTG", 4.36],
  ["CCGATTAACATCAGGGAATGACCTGATGTTAATCGGGTCTTGATTCGCTTGACGCTGCTG", 5.79],
  ["CCGATTAACATCAGAAATTTACCTGATGTTAATCGGGTCTTGATTCGCTTGACGCTGCTG", 2.09],
  ["CCGATTAACATCAAATGTTCCCCTGATGTTAATCGGGTCTTGATTCGCTTGACGCTGCTG", 6.21],
  ["CCGATTAACATCAATTTTCCCCCTGATGTTAATCGGGTCTTGATTCGCTTGACGCTGCTG", 6.79],
  ["CCGATTAACATCAAAGAAATCCCTGATGTTAATCGGGTCTTGATTCGCTTGACGCTGCTG", 4.61],
  ["CCGATTAACATCAAATTTCCCGATGATGTTAATCGGGTCTTGATTCGCTTGACGCTGCTG", 4.21],
  ["CCGATTAACATCAAAGATTCCCCTGATGTTAATCGGGTCTTGATTCGCTTGACGCTGCTG", 7.27],
  ["CCGATTAACATCAGGGAATTCCCTGATGTTAATCGGGTCTTGATTCGCTTGACGCTGCTG", 12.2],
  ["CCGATTAACATCAGGAAGTGCCCTGATGTTAATCGGGTCTTGATTCGCTTGACGCTGCTG", 2.55],
  ["CCGATTAACATCATGGAGGGAGGTGATGTTAATCGGGTCTTGATTCGCTTGACGCTGCTG", 1.34],
  ["CCGATTAACATCAGCATGGGAAATGATGTTAATCGGGTCTTGATTCGCTTGACGCTGCTG", 1.67],
  ["CCGATTAACATCAGGGGGGTTACTGATGTTAATCGGGTCTTGATTCGCTTGACGCTGCTG", 5.46],
  ["CCGATTAACATCAGGAAAAGCCCTGATGTTAATCGGGTCTTGATTCGCTTGACGCTGCTG", 4.95],
  ["CCGATTAACATCAGAATTCCCCCTGATGTTAATCGGGTCTTGATTCGCTTGACGCTGCTG", 8.47],
  ["CCGATTAACATCAAGGAAACCCCTGATGTTAATCGGGTCTTGATTCGCTTGACGCTGCTG", 6.19],
  ["CCGATTAACATCAGGGATACCCCTGATGTTAATCGGGTCTTGATTCGCTTGACGCTGCTG", 6.98],
  ["CCGATTAACATCAGGGAACCACCTGATGTTAATCGGGTCTTGATTCGCTTGACGCTGCTG", 6.96],
  ["CCGATTAACATCAAAACCCCCCTTGATGTTAATCGGGTCTTGATTCGCTTGACGCTGCTG", 8.03],
  ["CCGATTAACATCAGGACTTTCCCTGATGTTAATCGGGTCTTGATTCGCTTGACGCTGCTG", 10.5]
]}

// data source = paper PMC5700166
